Numbers sourced from patent US20250115597A1.

Target: TYK2-JH2 domain (Homo sapiens)
Construct: IC50 on JH2 domain activity (nM)
Sequence (P29597 589-875 limits assumed): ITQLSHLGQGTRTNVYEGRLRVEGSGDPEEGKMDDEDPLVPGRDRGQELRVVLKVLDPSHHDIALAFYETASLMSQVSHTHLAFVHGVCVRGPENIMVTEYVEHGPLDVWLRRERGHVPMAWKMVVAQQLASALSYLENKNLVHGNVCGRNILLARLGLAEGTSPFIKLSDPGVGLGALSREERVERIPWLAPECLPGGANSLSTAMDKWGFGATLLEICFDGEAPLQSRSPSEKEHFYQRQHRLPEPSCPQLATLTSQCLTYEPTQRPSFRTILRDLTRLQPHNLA
Assay: Binding activity test for JH2 domain of TYK2 (Tb-antibody/tracer FRET)
Details: ratio JAK1-JH2 IC50 / TYK2-JH2 IC50

{"compound": "[2H]C([2H])([2H])NC(=O)c1cnc(NC(=O)C2CC2)cc1Nc1cn(CC)c2ncn([C@@H](C)C(F)(F)F)c(=O)c12 (single isomer, unassigned) [Example 254B]", "JAK1/TYK2 selectivity": 21.60}
{"compound": "[2H]C([2H])([2H])NC(=O)c1cnc(NC(=O)C2CC2)cc1Nc1cn(C)c2ncn([C@@H](C)C(F)(F)F)c(=O)c12 (single isomer, unassigned) [Example 234B]", "JAK1/TYK2 selectivity": 42.2}
{"compound": "[2H]C([2H])([2H])NC(=O)c1cnc(NC(=O)C2CC2)cc1Nc1nn(CCC)c2ccn(CC(F)(F)F)c(=O)c12 [Example 208]", "JAK1/TYK2 selectivity": 140.1}

* * *

Assay: Microsomal metabolic stability assay
Format: in vitro ADME
Conditions: pH 7.4; dog liver microsomes, 0.5 mg/mL protein, 1 μM compound; read-out: Dog LM T½
just bin them by half-life at 1 μM: group 1 = under 0.8 h, group 2 = from 0.8 h up to 2 h, group 3 = 2 h and over

{"molecule": "CNC(=O)c1cnc(NC(=O)C2CC2)cc1Nc1csc2c(Cl)cn(C)c(=O)c12", "label.class": "group 3"}
{"molecule": "[2H]C([2H])([2H])NC(=O)c1cnc(NC(=O)C2CC2)cc1Nc1cn(CCOC)c2ccn(CC)c(=O)c12", "label.class": "group 3"}
{"molecule": "[2H]C([2H])([2H])NC(=O)c1cnc(NC(=O)C2CC2)cc1Nc1ccc2ncn(CC)c2c1OC", "label.class": "group 1"}
{"molecule": "[2H]C([2H])([2H])NC(=O)c1cnc(NC(=O)C2CC2)cc1Nc1ccc2cnn(CC(F)F)c2c1OC", "label.class": "group 1"}
{"molecule": "[2H]C([2H])([2H])NC(=O)c1cnc(Nc2ccc(F)cn2)cc1Nc1ccn2ncc(C#N)c2c1OC", "label.class": "group 3"}
{"molecule": "[2H]C([2H])([2H])NC(=O)c1cnc(Nc2ccc(F)cn2)cc1Nc1cn(CCOC)c2ccn(CC)c(=O)c12", "label.class": "group 2"}
{"molecule": "CNC(=O)c1cnc2nc1Nc1cc(cc(-c3ncn(C)n3)c1OC)COCc1cccc(c1)N2", "label.class": "group 3"}
{"molecule": "[2H]C([2H])([2H])NC(=O)c1cnc(NC(=O)C2CC2)cc1Nc1ccc2cnn(CC(F)(F)F)c2c1OC", "label.class": "group 1"}
{"molecule": "[2H]C([2H])([2H])NC(=O)c1cnc(Nc2ccc(F)cn2)cc1Nc1ccc2cnn(C([2H])([2H])[2H])c2c1OC", "label.class": "group 1"}
{"molecule": "[2H]C([2H])([2H])NC(=O)c1cnc(NC(=O)C2CC2)cc1Nc1cn(CC)c2ncn([C@H](C)C(F)(F)F)c(=O)c12 (single isomer, unassigned) [Example 254A]", "label.class": "group 3"}
{"molecule": "CCn1ccc2scc(Nc3cc(NC(=O)C4CC4)ncc3C(=O)NC)c2c1=O", "label.class": "group 2"}
{"molecule": "CCn1ccc2c(c(Nc3cc(Nc4ncc(F)cc4F)ncc3C(=O)NC)cn2C)c1=O", "label.class": "group 1"}
{"molecule": "[2H]C([2H])([2H])NC(=O)c1cnc(Nc2ccncn2)cc1Nc1cc(F)c2cnn(CC)c2c1OC", "label.class": "group 1"}
{"molecule": "[2H]C([2H])([2H])NC(=O)c1cnc(NC(=O)C2CC2)cc1Nc1csc2cnn(C(C)C)c(=O)c12", "label.class": "group 3"}
{"molecule": "[2H]C([2H])([2H])NC(=O)c1nnc2cc1Nc1cc(cc(-c3ncn(C)n3)c1OC)COCc1nc(ccc1F)N2", "label.class": "group 1"}
{"molecule": "[2H]C([2H])([2H])NC(=O)c1cnc(NC(=O)C2CC2)cc1Nc1ccn2ncc(C#N)c2c1OC", "label.class": "group 2"}
{"molecule": "CNC(=O)c1nnc2cc1Nc1cc(cc(-c3ncn(C)n3)c1OC)COCc1cccc(n1)N2", "label.class": "group 3"}
{"molecule": "[2H]C([2H])([2H])NC(=O)c1cnc2nc1Nc1cc(cc(-c3ncn(C)n3)c1OC)COCc1cc(F)cc(c1)N2", "label.class": "group 3"}
{"molecule": "[2H]C([2H])([2H])NC(=O)c1cnc(Nc2ccn(C)n2)cc1Nc1ncc2cnn(CC)c2c1OC", "label.class": "group 2"}
{"molecule": "[2H]C([2H])([2H])NC(=O)c1cnc(Nc2cccc(C#N)n2)nc1Nc1cccc(-c2ncn(C)n2)c1OC", "label.class": "group 2"}
{"molecule": "[2H]C([2H])([2H])NC(=O)c1cnc(NC(=O)C2CC2)cc1Nc1nn(CC)c2ccn(CC(F)(F)F)c(=O)c12", "label.class": "group 3"}
{"molecule": "[2H]C([2H])([2H])NC(=O)c1cnc(NC(=O)C2CC2)cc1Nc1csc2cnn(CC3CC3(F)F)c(=O)c12 (stereo not shown)", "label.class": "group 3"}
{"molecule": "[2H]C([2H])([2H])NC(=O)c1cnc(NC(=O)C2CC2)cc1Nc1csc2c(Cl)cn(C)c(=O)c12", "label.class": "group 2"}
{"molecule": "[2H]C([2H])([2H])NC(=O)c1cnc(NC(=O)C2CC2)cc1Nc1csc2cnn(CC(F)(F)F)c(=O)c12", "label.class": "group 3"}
{"molecule": "CNC(=O)c1cnc(NC(=O)C2CC2)cc1Nc1csc2ccn(C)c(=O)c12", "label.class": "group 3"}
{"molecule": "[2H]C([2H])([2H])NC(=O)c1nnc2cc1Nc1cc(cc(-c3ccn(C)n3)c1OC)COCc1nc(ccc1F)N2", "label.class": "group 1"}
{"molecule": "[2H]C([2H])([2H])NC(=O)c1cnc(NC(=O)C2CC2)cc1Nc1cn(C)c2ccn(CC(F)(F)F)c(=O)c12", "label.class": "group 2"}
{"molecule": "[2H]C([2H])([2H])NC(=O)c1cnc(Nc2cccc(F)n2)cc1Nc1cn(C)c2c(Cl)cn(CC)c(=O)c12", "label.class": "group 2"}

* * *

Assay: Plasma protein binding by equilibrium dialysis
Format: in vitro ADME
Details: human plasma, equilibrium dialysis 5 hours at 37° C.; read-out: % Bound (human) (converted)
Kindly apply the following: criterion met if fraction unbound at 5 h is less than 0.07, criterion not met in every other case.

{"molecule": "[2H]C([2H])([2H])NC(=O)c1cnc(NC(=O)C2CC2)cc1Nc1ccc2cnn(C([2H])([2H])C([2H])([2H])[2H])c2c1OC([2H])([2H])[2H] [Example 134]", "label.class": "criterion met"}
{"molecule": "CCn1ncc2cnc(Nc3cc(NC(=O)C4CC4)ncc3C(=O)NC)c(OC)c21 [Example 261]", "label.class": "criterion not met"}
{"molecule": "CCn1ncc2ccc(Nc3cc(NC(=O)C4CC4)ncc3C(=O)NC)c(OC)c21 [Example 228]", "label.class": "criterion met"}
{"molecule": "[2H]C([2H])([2H])NC(=O)c1cnc(NC(=O)C2CC2)cc1Nc1nn(CCCOC)c2ccn(CC(F)(F)F)c(=O)c12 [Example 96]", "label.class": "criterion not met"}
{"molecule": "CNC(=O)c1cnc(NC(=O)C2CC2)nc1Nc1cccc(-c2ncn(C)n2)c1OC [Example 65]", "label.class": "criterion met"}
{"molecule": "[2H]C([2H])([2H])NC(=O)c1cnc(NC(=O)C2CC2)cc1Nc1ncc2cnn(CC)c2c1OC [Example 262]", "label.class": "criterion not met"}
{"molecule": "[2H]C([2H])([2H])NC(=O)c1cnc(NC(=O)C2CC2)cc1Nc1csc2ncn(CC)c(=O)c12 [Example 216]", "label.class": "criterion met"}

* * *

Target: Ba/F3-FL-TYK2-P760L cells (Homo sapiens, UniProt P29597, P760L, cells depend on it)
Construct: BaF3-FL-T2P760L (nM)
Sequence (P29597 whole entry P760L): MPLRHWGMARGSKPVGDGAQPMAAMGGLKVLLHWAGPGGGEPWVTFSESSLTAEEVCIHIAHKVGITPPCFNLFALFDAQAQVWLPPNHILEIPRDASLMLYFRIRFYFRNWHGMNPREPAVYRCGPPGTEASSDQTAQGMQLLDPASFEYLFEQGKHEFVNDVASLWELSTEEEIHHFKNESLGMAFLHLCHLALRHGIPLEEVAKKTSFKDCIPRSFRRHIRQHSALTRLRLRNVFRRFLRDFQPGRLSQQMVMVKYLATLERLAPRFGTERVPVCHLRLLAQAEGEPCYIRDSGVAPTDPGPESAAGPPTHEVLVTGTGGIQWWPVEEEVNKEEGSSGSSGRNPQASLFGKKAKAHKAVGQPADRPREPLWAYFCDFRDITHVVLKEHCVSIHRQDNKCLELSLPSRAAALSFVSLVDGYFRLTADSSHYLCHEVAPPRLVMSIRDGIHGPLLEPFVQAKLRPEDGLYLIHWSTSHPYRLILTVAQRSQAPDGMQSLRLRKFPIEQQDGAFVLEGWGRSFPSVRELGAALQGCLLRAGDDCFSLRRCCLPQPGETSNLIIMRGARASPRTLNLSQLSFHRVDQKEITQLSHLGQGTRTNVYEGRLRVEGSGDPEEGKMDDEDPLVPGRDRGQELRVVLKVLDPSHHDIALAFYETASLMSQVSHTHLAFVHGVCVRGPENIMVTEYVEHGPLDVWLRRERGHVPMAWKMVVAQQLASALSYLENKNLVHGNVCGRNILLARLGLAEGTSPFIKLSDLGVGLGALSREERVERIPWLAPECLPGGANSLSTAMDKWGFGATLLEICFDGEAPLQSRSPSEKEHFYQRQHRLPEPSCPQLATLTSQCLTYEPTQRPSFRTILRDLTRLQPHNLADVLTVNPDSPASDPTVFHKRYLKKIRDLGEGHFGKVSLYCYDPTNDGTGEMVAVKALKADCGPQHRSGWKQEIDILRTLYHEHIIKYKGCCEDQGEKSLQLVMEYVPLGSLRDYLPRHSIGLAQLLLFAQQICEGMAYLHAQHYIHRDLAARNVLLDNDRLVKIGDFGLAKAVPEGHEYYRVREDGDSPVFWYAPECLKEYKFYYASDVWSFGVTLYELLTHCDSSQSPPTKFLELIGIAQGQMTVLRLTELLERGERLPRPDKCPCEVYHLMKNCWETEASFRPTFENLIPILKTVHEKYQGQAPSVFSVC
Assay: Anti-proliferative assay, Ba/F3-FL-TYK2-P760L cells (Cell-Titer Glo)
Type: cell-based
Details: 72 h, read-out: BaF3-FL-T2P760L IC50
# GI50 listing for each entry below
observed.property: GI50 (nM)

{"molecule": "[2H]C([2H])([2H])NC(=O)c1cnc(NC(=O)C2CC2)cc1Nc1cn(C([2H])([2H])[2H])c2ccn(C(C)C(F)(F)F)c(=O)c12 (centres unmarked)", "unit.annotation": "nM", "limit.sign": "=", "test.result": 175}
{"molecule": "[2H]C([2H])([2H])NC(=O)c1cnc(NC(=O)C2CC2)cc1Nc1cn(C)c2ccn(-c3ccn(C)n3)c(=O)c12", "unit.annotation": "nM", "limit.sign": "=", "test.result": 1060}
{"molecule": "CNC(=O)c1cnc2nc1Nc1cc(cc(-c3ncn(C)n3)c1OC)CN(C)Cc1cccc(c1)N2", "unit.annotation": "nM", "limit.sign": "=", "test.result": 861}
{"molecule": "CNC(=O)c1cnc(NC(=O)C2CC2)nc1Nc1cn(C)c2ccn(C)c(=O)c12", "unit.annotation": "nM", "limit.sign": "=", "test.result": 483}
{"molecule": "CNC(=O)c1cnc(NC(=O)C2CC2)cc1Nc1cc(Br)c2nn3c(c2c1OC)CCC3", "unit.annotation": "nM", "limit.sign": "=", "test.result": 902}
{"molecule": "[2H]C([2H])([2H])NC(=O)c1cnc(NC(=O)C2CC2)cc1Nc1ccn2ncc(CC(N)=O)c2c1OC", "unit.annotation": "nM", "limit.sign": ">", "test.result": 5000}
{"molecule": "[2H]C([2H])([2H])NC(=O)c1cnc(Nc2ccc(F)cn2)cc1Nc1ccn2ncc(C)c2c1OC", "unit.annotation": "nM", "limit.sign": "=", "test.result": 155}
{"molecule": "CCNC(=O)c1cnc(NC(=O)C2CC2)cc1Nc1ccc2cnn(CC)c2c1OC", "unit.annotation": "nM", "limit.sign": "=", "test.result": 1270}
{"molecule": "[2H]C([2H])([2H])NC(=O)c1cnc(NC(=O)C2CC2)cc1Nc1cn(C)c2ccn(C(C)C(F)(F)F)c(=O)c12 (single isomer, unassigned) [Example 190A]", "unit.annotation": "nM", "limit.sign": "=", "test.result": 113}
{"molecule": "[2H]C([2H])([2H])NC(=O)c1nnc2cc1Nc1cc(cc(-c3ncn(C)n3)c1OC)CN(C)Cc1nc(ccc1F)N2", "unit.annotation": "nM", "limit.sign": "=", "test.result": 249}
{"molecule": "[2H]C([2H])([2H])NC(=O)c1cnc(NC(=O)C2CC2)cc1Nc1csc2cnn(CCOCC)c(=O)c12", "unit.annotation": "nM", "limit.sign": "=", "test.result": 710}
{"molecule": "[2H]C([2H])([2H])NC(=O)c1cnc(Nc2ccc(F)cn2)cc1Nc1ccn2ncc(C#N)c2c1OC", "unit.annotation": "nM", "limit.sign": "=", "test.result": 39.7}
{"molecule": "[2H]C([2H])([2H])NC(=O)c1cnc(Nc2cc(F)c(F)cn2)cc1Nc1cn(C)c2c(F)cn(C)c(=O)c12", "unit.annotation": "nM", "limit.sign": "=", "test.result": 42.2}
{"molecule": "[2H]C([2H])([2H])NC(=O)c1cnc(NC(=O)C2CC2)cc1Nc1ccc2cnn(C(C)C#N)c2c1OC (centres unmarked) [Example 249]", "unit.annotation": "nM", "limit.sign": "=", "test.result": 357}
